target: STING (Homo sapiens, UniProt Q86WV6, G230A/H232R/R293Q/R71H); construct: host or cells: THP1-Dual KO-IFNAR2 cells; experiment: STING reporter assay: luciferase reporter activity in THP1-Dual KO-IFNAR2 cells stimulated with 2′3′cGAMP; type: cell-based; conditions: 15 μM 2′3′cGAMP, 24h, read-out: hSTING EC50
Sequence (Q86WV6 whole entry R71H/G230A/H232R/R293Q): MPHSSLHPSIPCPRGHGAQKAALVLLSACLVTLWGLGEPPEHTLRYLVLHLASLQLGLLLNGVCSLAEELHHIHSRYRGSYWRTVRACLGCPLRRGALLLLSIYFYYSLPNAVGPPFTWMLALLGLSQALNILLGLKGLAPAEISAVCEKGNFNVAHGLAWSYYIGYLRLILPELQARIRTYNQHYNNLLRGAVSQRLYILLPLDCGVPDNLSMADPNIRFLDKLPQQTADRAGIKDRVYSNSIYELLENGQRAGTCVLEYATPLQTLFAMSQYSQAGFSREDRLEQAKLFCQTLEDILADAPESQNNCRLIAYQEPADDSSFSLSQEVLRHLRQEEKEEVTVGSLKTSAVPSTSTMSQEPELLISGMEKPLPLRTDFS
EC50: recorded values

- molecule: "COCCCC(=O)Nc1c[nH]c2ccc(-c3cnn(-c4ccc(C(F)(F)F)cc4)c3)cc12"
  target desc: "STING (Homo sapiens, UniProt Q86WV6, G230A/H232R/R293Q/R71H)"
  EC50: "40 to 200 nM"
- molecule: "CCc1ccc(-n2cc(-c3ccc4[nH]cc(NC(=O)/C=C/COC)c4c3)cn2)cc1"
  target desc: "STING (Homo sapiens, UniProt Q86WV6, G230A/H232R/R293Q/R71H)"
  EC50: "200 to 1000 nM"
- molecule: "CCC(O)C(=O)Nc1c[nH]c2ccc(-c3cnn(-c4ccc(C(F)(F)F)cc4)c3)cc12 (stereo not shown)"
  target desc: "STING (Homo sapiens, UniProt Q86WV6, G230A/H232R/R293Q/R71H)"
  EC50: "200 to 1000 nM"
- molecule: "CS(=O)(=O)CCC(=O)Nc1c[nH]c2ccc(-c3cnn(-c4ccc(C(F)(F)F)cc4)c3)cc12"
  target desc: "STING (Homo sapiens, UniProt Q86WV6, G230A/H232R/R293Q/R71H)"
  EC50: "200 to 1000 nM"
- molecule: "CC(=O)Nc1c[nH]c2ccc(-c3cnn(C(C)c4cccc(C(F)(F)F)c4)c3)cc12 (stereo not shown)"
  target desc: "STING (Homo sapiens, UniProt Q86WV6, G230A/H232R/R293Q/R71H)"
  EC50: "200 to 1000 nM"
- molecule: "CCC(=O)Nc1c[nH]c2ccc(-c3ccnn3C)cc12"
  target desc: "STING (Homo sapiens, UniProt Q86WV6, G230A/H232R/R293Q/R71H)"
  EC50: "1000 to 5000 nM"
- molecule: "O=C1NCCC1C(=O)Nc1c[nH]c2ccc(-c3cnn(-c4ccc(C(F)(F)F)cc4)c3)cc12 (stereo not shown)"
  target desc: "STING (Homo sapiens, UniProt Q86WV6, G230A/H232R/R293Q/R71H)"
  EC50: "5000 to 100000 nM"
- molecule: "O=C(Nc1c[nH]c2ccc(-c3cnn(Cc4ccc(C(F)(F)F)cc4)c3)cc12)C1CCC1"
  target desc: "STING (Homo sapiens, UniProt Q86WV6, G230A/H232R/R293Q/R71H)"
  EC50: "40 to 200 nM"
- molecule: "O=C(COC(F)(F)F)Nc1c[nH]c2ccc(-c3cnn(-c4ccc(C(F)(F)F)cc4)c3)cc12"
  target desc: "STING (Homo sapiens, UniProt Q86WV6, G230A/H232R/R293Q/R71H)"
  EC50: "200 to 1000 nM"
- molecule: "CCC(=O)Nc1c[nH]c2ccc(-c3cnn(-c4cccc(CC)c4)c3)cc12"
  target desc: "STING (Homo sapiens, UniProt Q86WV6, G230A/H232R/R293Q/R71H)"
  EC50: "200 to 1000 nM"
- molecule: "O=C(Nc1c[nH]c2ccc(-c3cnn(Cc4ccc(C(F)(F)F)nc4)c3)cc12)C1CCC1"
  target desc: "STING (Homo sapiens, UniProt Q86WV6, G230A/H232R/R293Q/R71H)"
  EC50: "200 to 1000 nM"
- molecule: "O=C(Nc1c[nH]c2ccc(-c3cnn(-c4ccc(C(F)(F)F)cc4)c3)cc12)c1ccn[nH]1"
  target desc: "STING (Homo sapiens, UniProt Q86WV6, G230A/H232R/R293Q/R71H)"
  EC50: "200 to 1000 nM"
- molecule: "O=C(Nc1c[nH]c2ccc(-c3cnn(-c4ccc(C(F)(F)F)cc4)c3)cc12)C1CS(=O)(=O)C1"
  target desc: "STING (Homo sapiens, UniProt Q86WV6, G230A/H232R/R293Q/R71H)"
  EC50: "200 to 1000 nM"
- molecule: "CCC(=O)Nc1c[nH]c2ccc(-c3ccnn3-c3ccc(C(F)(F)F)cc3)cc12"
  target desc: "STING (Homo sapiens, UniProt Q86WV6, G230A/H232R/R293Q/R71H)"
  EC50: "5000 to 100000 nM"
- molecule: "CCC(=O)Nc1c[nH]c2ccc(C3=CCN(c4ccccn4)CC3)cc12"
  target desc: "STING (Homo sapiens, UniProt Q86WV6, G230A/H232R/R293Q/R71H)"
  EC50: "5000 to 100000 nM"
- molecule: "O=C(Nc1c[nH]c2ccc(-c3cnn(-c4ccc(C(F)(F)F)cc4)c3)cc12)C1(F)CCC1"
  target desc: "STING (Homo sapiens, UniProt Q86WV6, G230A/H232R/R293Q/R71H)"
  EC50: "200 to 1000 nM"
- molecule: "CC(c1cccc(C(F)(F)F)c1)n1cc(-c2ccc3[nH]cc(NC(=O)C4CCC4)c3c2)cn1 (stereo not shown)"
  target desc: "STING (Homo sapiens, UniProt Q86WV6, G230A/H232R/R293Q/R71H)"
  EC50: "200 to 1000 nM"
- molecule: "CCC(=O)Nc1c[nH]c2ccc(-c3cnn(-c4ccc(COC)cc4)c3)cc12"
  target desc: "STING (Homo sapiens, UniProt Q86WV6, G230A/H232R/R293Q/R71H)"
  EC50: "200 to 1000 nM"
- molecule: "CCc1ccc(-n2cc(-c3ccc4[nH]cc(NC(=O)C5CC(=O)N5)c4c3)cn2)cc1 (stereo not shown)"
  target desc: "STING (Homo sapiens, UniProt Q86WV6, G230A/H232R/R293Q/R71H)"
  EC50: "200 to 1000 nM"
- molecule: "CCC(=O)Nc1c[nH]c2ccc(-c3ccc(C4(C#N)CC4)cc3)cc12"
  target desc: "STING (Homo sapiens, UniProt Q86WV6, G230A/H232R/R293Q/R71H)"
  EC50: "5000 to 100000 nM"
- molecule: "O=C(Nc1c[nH]c2ccc(-c3cnn(-c4ccc(C(F)(F)F)cc4)c3)cc12)c1cnn[nH]1"
  target desc: "STING (Homo sapiens, UniProt Q86WV6, G230A/H232R/R293Q/R71H)"
  EC50: "1000 to 5000 nM"
- molecule: "CC(=O)NC(C)(C)C(=O)Nc1c[nH]c2ccc(-c3cnn(-c4ccc(C(F)(F)F)cc4)c3)cc12"
  target desc: "STING (Homo sapiens, UniProt Q86WV6, G230A/H232R/R293Q/R71H)"
  EC50: "5000 to 100000 nM"
- molecule: "CCC(=O)Nc1c[nH]c2ccc(-c3cnn(-c4ccc(Cl)cc4)c3)cc12"
  target desc: "STING (Homo sapiens, UniProt Q86WV6, G230A/H232R/R293Q/R71H)"
  EC50: "200 to 1000 nM"
- molecule: "Cc1cc(C(=O)Nc2c[nH]c3ccc(-c4cnn(-c5ccc(C(F)(F)F)cc5)c4)cc23)on1"
  target desc: "STING (Homo sapiens, UniProt Q86WV6, G230A/H232R/R293Q/R71H)"
  EC50: "200 to 1000 nM"
- molecule: "CC(C)n1cc(C(=O)Nc2c[nH]c3ccc(-c4cnn(-c5ccc(C(F)(F)F)cc5)c4)cc23)nn1"
  target desc: "STING (Homo sapiens, UniProt Q86WV6, G230A/H232R/R293Q/R71H)"
  EC50: "200 to 1000 nM"
- molecule: "CCC(=O)Nc1c[nH]c2ccc(-c3ccn(-c4ccc(C(F)(F)F)cc4)n3)cc12"
  target desc: "STING (Homo sapiens, UniProt Q86WV6, G230A/H232R/R293Q/R71H)"
  EC50: "1000 to 5000 nM"
- molecule: "CCc1ccc(-n2cc(-c3ccc4[nH]cc(NC(=O)CN(C)C)c4c3)cn2)cc1"
  target desc: "STING (Homo sapiens, UniProt Q86WV6, G230A/H232R/R293Q/R71H)"
  EC50: "5000 to 100000 nM"
- molecule: "O=C(Nc1c[nH]c2ccc(-c3cnn(-c4ccc(C(F)(F)F)cc4)c3)cc12)C1CCC(F)(F)CC1"
  target desc: "STING (Homo sapiens, UniProt Q86WV6, G230A/H232R/R293Q/R71H)"
  EC50: "200 to 1000 nM"
- molecule: "CN1CC(C(=O)Nc2c[nH]c3ccc(-c4cnn(-c5ccc(C(F)(F)F)cc5)c4)cc23)CC1=O (stereo not shown)"
  target desc: "STING (Homo sapiens, UniProt Q86WV6, G230A/H232R/R293Q/R71H)"
  EC50: "1000 to 5000 nM"
- molecule: "CCC(=O)Nc1c[nH]c2ccc(-c3ccc(CN4CCOCC4)s3)cc12"
  target desc: "STING (Homo sapiens, UniProt Q86WV6, G230A/H232R/R293Q/R71H)"
  EC50: "5000 to 100000 nM"
- molecule: "CN1CC(C(=O)Nc2c[nH]c3ccc(-c4cnn(-c5ccc(C(F)(F)F)cc5)c4)cc23)C1=O (stereo not shown)"
  target desc: "STING (Homo sapiens, UniProt Q86WV6, G230A/H232R/R293Q/R71H)"
  EC50: "1000 to 5000 nM"
